Origin of values: ChEMBL document CHEMBL4619822

Target: Proprotein convertase subtilisin/kexin type 9 (Homo sapiens) (UniProt Q8NBP7)
Sequence (Q8NBP7 31-152 limits assumed): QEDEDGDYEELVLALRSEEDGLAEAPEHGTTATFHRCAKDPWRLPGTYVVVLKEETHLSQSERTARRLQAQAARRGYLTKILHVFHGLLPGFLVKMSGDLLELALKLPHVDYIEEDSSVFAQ
Sequence (Q8NBP7 153-692 limits assumed): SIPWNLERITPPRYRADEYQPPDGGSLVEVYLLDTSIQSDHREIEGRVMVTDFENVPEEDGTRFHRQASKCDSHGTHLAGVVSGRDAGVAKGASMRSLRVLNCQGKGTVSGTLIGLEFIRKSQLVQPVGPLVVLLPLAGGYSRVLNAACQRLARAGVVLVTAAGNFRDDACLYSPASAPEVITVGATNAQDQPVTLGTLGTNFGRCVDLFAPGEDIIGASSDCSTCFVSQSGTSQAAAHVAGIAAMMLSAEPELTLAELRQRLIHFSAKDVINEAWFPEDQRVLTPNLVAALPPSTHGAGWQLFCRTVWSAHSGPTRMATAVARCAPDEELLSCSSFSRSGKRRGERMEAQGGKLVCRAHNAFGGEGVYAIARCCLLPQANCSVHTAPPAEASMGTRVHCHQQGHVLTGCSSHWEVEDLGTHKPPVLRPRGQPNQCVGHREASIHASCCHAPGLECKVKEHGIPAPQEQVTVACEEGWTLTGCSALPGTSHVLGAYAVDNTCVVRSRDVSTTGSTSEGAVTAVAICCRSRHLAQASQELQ
Assay: Inhibition of human PCSK9 by Alexa Fluor 647 staining based TR-FRET assay relative to control
propertyLabel: Imax (%)

COC[C@@H]1NC(=O)[C@H](C)N(Cc2ncc(Cl)cc2Oc2ccc(-c3cnc(CN(C)C)n3C)cc2)C(=O)C[C@@H](Cc2ccccc2)C(=O)N2CCC[C@@](Cc3ccc(Cl)cc3)(C2)NC1=O: 103
CNCc1ncc(-c2ccc(Oc3cc(Cl)ccc3CN3C(=O)C[C@@H](Cc4ccccc4)C(=O)N4CCC[C@@](Cc5ccc(Cl)cc5)(C4)NC(=O)[C@H](CO)NC(=O)[C@@H]3C)cc2)n1C: 105
C[C@H]1C(=O)N[C@@H](CO)C(=O)N[C@@]2(Cc3ccc(Cl)cc3)CCCN(C2)C(=O)[C@H](Cc2ccccc2)CC(=O)N1Cc1ccc(Cl)c(F)c1Oc1ccc(-c2cnc(CN(C)C)n2C)cc1: 101
C[C@H]1C(=O)N[C@@H](CO)C(=O)N[C@@]2(Cc3ccc(Cl)cc3)CCCN(C2)C(=O)[C@H](CC2CC2)CC(=O)N1Cc1c(F)cc(Cl)cc1Oc1ccc(-c2cnc(CNC3CCC3)n2C)cc1: 100
CNCc1ncc(-c2ccc(Oc3cc(Cl)cc(F)c3CN3C(=O)C[C@@H](CC(F)(F)F)C(=O)N4CCC[C@@](Cc5ccc(Cl)cc5)(C4)N(C)C(=O)[C@H](COC)NC(=O)[C@@H]3C)cc2)n1C: 105
COC[C@@H]1NC(=O)[C@H](C)N(Cc2ccc(Cl)cc2Oc2ccc(-c3cnc(CN(C)C)n3C)nc2)C(=O)C[C@@H](CC(F)(F)F)C(=O)N2CCC[C@@](Cc3ccc(Cl)cc3)(C2)N(C)C1=O: 113
